Test summary: Phase I/IIa clinical PK of oral psilocin-d10, plasma, noncompartmental analysis (Cohorts 1-6)
Assay type: in vivo, human
Condition label: human, plasma, po, 3 mg, 3 mg oral, Cohort 2 NHV, Day 1; read-out: Cmax Median
Measurement type: Cmax (ng/mL)
Numbers only, in ng/mL.

The recorded Cmax for entry "[2H]C([2H])([2H])N(C([2H])([2H])[2H])C([2H])([2H])C([2H])([2H])c1c[nH]c2cccc(O)c12" equals 5.87

* * *

Test summary: Phase I/IIa clinical PK of oral psilocin-d10, plasma, noncompartmental analysis (Cohorts 1-6)
Format: in vivo, human
Condition label: human, plasma, po, 16 mg, 16 mg oral, Cohort 6 MDD, all subjects incl. 3 with emesis; read-out: Vz/F Mean (SD)
Measurement type: Vd/F (L)
Answers are plain numbers, in L.

The recorded Vd/F for entry "[2H]C([2H])([2H])N(C([2H])([2H])[2H])C([2H])([2H])C([2H])([2H])c1c[nH]c2cccc(O)c12" equals 986

* * *

Test summary: Phase I/IIa clinical PK of oral psilocin-d10, plasma, noncompartmental analysis (Cohorts 1-6)
Assay type: in vivo, human
Condition label: human, plasma, po, 12 mg, 12 mg oral, Cohorts 4 and 5 MDD, Day 1 and Day 22; read-out: Cmax Median
Source text: Phase I/IIa, Randomized, Double-Blind, Placebo-Controlled Study which assesses the safety, tolerability, pharmacokinetics, and pharmacodynamics of multiple ascending oral doses of psilocin-d10 in participants with and without MDD (ClinicalTrials.gov Identifier: NCT05385783). […]
Measurement type: Cmax (µg/mL)
Give bare numbers, in µg/mL.

The recorded Cmax for entry [2H]C([2H])([2H])N(C([2H])([2H])[2H])C([2H])([2H])C([2H])([2H])c1c[nH]c2cccc(O)c12 [psilocin-d10] equals 0.0162

* * *

Test summary: Phase I/IIa clinical PK of oral psilocin-d10, plasma, noncompartmental analysis (Cohorts 1-6)
Format: in vivo, human
Condition label: human, plasma, po, 1 mg, 1 mg oral, Cohort 1 MDD, Day 1 and Day 22 pooled; read-out: AUClast Mean (SD)
Measurement type: AUC(0-t)

The recorded AUC(0-t) for entry "[2H]C([2H])([2H])N(C([2H])([2H])[2H])C([2H])([2H])C([2H])([2H])c1c[nH]c2cccc(O)c12" equals 10 ng·h/mL

* * *

Test summary: Phase I/IIa clinical PK of oral psilocin-d10, plasma, noncompartmental analysis (Cohorts 1-6)
Format: in vivo, human
Condition label: human, plasma, po, 12 mg, 12 mg oral, Cohorts 4 and 5 MDD, Day 1 and Day 22; read-out: T1/2 Mean (SD) (converted)
Measurement type: half-life (h)
One number for each entry, in h.

The recorded half-life for entry [2H]C([2H])([2H])N(C([2H])([2H])[2H])C([2H])([2H])C([2H])([2H])c1c[nH]c2cccc(O)c12 [psilocin-d10] equals 5.35

* * *

Condition label: Sprague Dawley, rat, in vivo, po
Measurement type: bioavailability

The recorded bioavailability for entry [2H]C([2H])([2H])N(C([2H])([2H])[2H])C([2H])([2H])C([2H])([2H])c1c[nH]c2cccc(O)c12 [psilocin-d10] equals ~60%

* * *

Test summary: Phase I/IIa clinical PK of oral psilocin-d10, plasma, noncompartmental analysis (Cohorts 1-6)
Format: in vivo, human
Condition label: human, plasma, po, 10 mg, 10 mg oral, Cohort 3 NHV, Day 8; read-out: Cmax Median
Measurement type: Cmax (ng/mL)
Numbers only, in ng/mL.

The recorded Cmax for entry [2H]C([2H])([2H])N(C([2H])([2H])[2H])C([2H])([2H])C([2H])([2H])c1c[nH]c2cccc(O)c12 [psilocin-d10] equals 10.9
